# ASSAY PROTOCOL: Catalepsy test in rats (s.c., vertical wire mesh)
# EXPERIMENTAL CONTEXT: rat, maximum catalepsy within the first 6 hours
ENDPOINT LABEL: Cataleptic activity ED50 (s.c.)

> print(dat)
                                   compound                   endpoint.label        result
1  O=C1NCCN1CCN1CC=C(c2cn(-c3ccc(F)cc3)c3ccc(C(F)(F)F)cc23)CC1 [Comp. A, reference compound]  Cataleptic activity ED50 (s.c.)  0.49 µmol/kg
2  O=C1NCCN1CCN1CC=C(c2cn(-c3ccc(F)cc3)c3ccc(Cl)cc23)CC1 [Comp. B, reference compound]  Cataleptic activity ED50 (s.c.)   2.2 µmol/kg
3  CN1CCN(CCN2CCC(c3cn(-c4ccc(F)cc4)c4ccc(Cl)cc34)CC2)C1=O  Cataleptic activity ED50 (s.c.)    31 µmol/kg
4  O=C1CCCN1CCN1CCC(c2cn(-c3ccc(F)cc3)c3ccc(Cl)cc23)CC1  Cataleptic activity ED50 (s.c.)    23 µmol/kg

Reference source: patent US5462948A
